Molecular target: hPDE10A2 (Homo sapiens)
Sequence (Q9Y233 267-1055): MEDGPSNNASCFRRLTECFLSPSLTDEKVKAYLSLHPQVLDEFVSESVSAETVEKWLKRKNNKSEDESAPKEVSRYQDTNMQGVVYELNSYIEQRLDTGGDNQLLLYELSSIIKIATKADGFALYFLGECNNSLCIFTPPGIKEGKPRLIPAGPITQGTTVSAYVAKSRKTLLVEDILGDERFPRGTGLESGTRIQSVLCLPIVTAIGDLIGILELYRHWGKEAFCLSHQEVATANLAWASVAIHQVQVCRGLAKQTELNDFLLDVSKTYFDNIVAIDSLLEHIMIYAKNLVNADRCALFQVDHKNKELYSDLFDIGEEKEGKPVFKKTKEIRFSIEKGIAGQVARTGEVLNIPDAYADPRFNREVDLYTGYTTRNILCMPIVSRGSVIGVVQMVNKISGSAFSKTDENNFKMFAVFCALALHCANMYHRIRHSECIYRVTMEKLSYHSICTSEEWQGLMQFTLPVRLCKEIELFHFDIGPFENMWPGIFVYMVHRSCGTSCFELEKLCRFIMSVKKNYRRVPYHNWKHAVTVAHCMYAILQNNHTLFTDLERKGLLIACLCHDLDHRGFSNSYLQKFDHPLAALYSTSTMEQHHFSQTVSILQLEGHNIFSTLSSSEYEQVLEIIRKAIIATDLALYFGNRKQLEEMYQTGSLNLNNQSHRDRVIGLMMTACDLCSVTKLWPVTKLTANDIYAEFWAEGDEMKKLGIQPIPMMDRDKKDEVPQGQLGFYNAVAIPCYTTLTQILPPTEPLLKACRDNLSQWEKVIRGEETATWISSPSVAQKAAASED
Assay: biochemical
Conditions: read-out: hPDE10A2 or rPDE10A2 Emax, human clone; 60 nM cAMP substrate
Listed molecules paired with reported Emax

{"molecule": "Cc1cc([C@H](C)N2CC[C@@H](C)[C@H](c3cc(C(F)F)nc4ncnn34)C2)cc(C2CC2)n1 (relative stereo)", "Emax / %": 78}
{"molecule": "Cl.FC(F)c1cc([C@H]2CC[C@H]3CC[C@@H]2N3Cc2ccc(Cl)c(Cl)c2)n2ncnc2n1", "Emax / %": 58}
{"molecule": "C[C@@H]1CCN(Cc2cccc(OC(F)F)c2)C[C@H]1c1cc(C(F)F)nc2ncnn12", "Emax / %": 61}
{"molecule": "C[C@@H]1CCN(Cc2ccc(F)c(F)c2)C[C@@H]1c1cc(C(F)F)nc2ncnn12", "Emax / %": 45}
{"molecule": "C[C@@H]1CCN([C@@H](C)c2ccc(C(F)(F)F)cc2)C[C@H]1c1cc(C(F)F)nc2ncnn12 (relative stereo)", "Emax / %": 68}
{"molecule": "C[C@@H]1CCN(Cc2ccccc2)C[C@H]1c1cc(C(F)F)nc2ncnn12", "Emax / %": 26}
{"molecule": "C[C@@H]1CCN([C@H](C)c2ccc3ncsc3c2)C[C@H]1c1cc(C(F)F)nc2ncnn12 (single isomer, unassigned)", "Emax / %": 86}
{"molecule": "C[C@@H]1CCN(Cc2cccc(OC(F)(F)F)c2)C[C@H]1c1cc(C(F)F)nc2ncnn12", "Emax / %": 58}
{"molecule": "Cc1cc([C@@H](C)N2CC[C@@H](C)[C@H](c3cc(C(F)F)nc4ncnn34)C2)cc(Cl)n1 (single isomer, unassigned)", "Emax / %": 87}
{"molecule": "C[C@]1(c2cc(C(F)F)nc3ncnn23)CCCN(Cc2ccc(F)c(F)c2)C1.Cl (stereo in doubt)", "Emax / %": 9}
{"molecule": "Cc1cc(CN2CC[C@@H](C)[C@H](c3cc(C(F)F)nc4ncnn34)C2)cc(C)n1.Cl", "Emax / %": 72}
{"molecule": "C[C@@H]1CCN(Cc2ccc(OC(F)(F)F)cc2)C[C@H]1c1cc(C(F)F)nc2ncnn12", "Emax / %": 62}
{"molecule": "Cc1csc(CN2CC[C@@H](C)[C@H](c3cc(C(F)F)nc4ncnn34)C2)c1.Cl", "Emax / %": 44}
{"molecule": "Cl.FC(F)Oc1cccc(CN2[C@H]3CC[C@H](c4cc(C(F)F)nc5ncnn45)[C@@H]2CC3)c1", "Emax / %": 43}
{"molecule": "C[C@@H]1CCN(Cc2nn(C)c3ccccc23)C[C@H]1c1cc(C(F)F)nc2ncnn12", "Emax / %": 37}
{"molecule": "Cc1cc([C@@H](C)N2CC[C@@H](C)[C@H](c3cc(C(F)F)nc4ncnn34)C2)cc(C2CC2)n1 (relative stereo)", "Emax / %": 91}
{"molecule": "C[C@@H]1CCN(Cc2ccc(Cl)c(Cl)c2)C[C@H]1c1cc(C(F)F)nc2ncnn12", "Emax / %": 80}
{"molecule": "Cc1cc(CN2CC[C@H](C)[C@@H](c3cc(C(F)F)nc4ncnn34)C2)ccn1.Cl", "Emax / %": 10}
{"molecule": "C[C@@H]1CCN([C@H](C)c2ccc(C(F)(F)F)cc2)C[C@H]1c1cc(C(F)F)nc2ncnn12 (relative stereo)", "Emax / %": 47}
{"molecule": "C[C@@H]1CCN([C@@H](C)c2ccc3ncsc3c2)C[C@H]1c1cc(C(F)F)nc2ncnn12 (single isomer, unassigned)", "Emax / %": 85}
{"molecule": "C[C@@H]1CCN(Cc2cc3ccccc3o2)C[C@H]1c1cc(C(F)F)nc2ncnn12.Cl", "Emax / %": 69}
{"molecule": "C[C@@H]1CCN(Cc2nccc3ccccc23)C[C@H]1c1cc(C(F)F)nc2ncnn12", "Emax / %": 58}
{"molecule": "C[C@@H]1CCN(Cc2cccc(C#N)n2)C[C@H]1c1cc(C(F)F)nc2ncnn12", "Emax / %": 28}
{"molecule": "Cc1cc(CN2CC[C@@H](C)[C@H](c3cc(C(F)F)nc4ncnn34)C2)cc(C)c1Cl.Cl", "Emax / %": 82}
{"molecule": "Cc1nn(C)cc1CN1CC[C@@H](C)[C@H](c2cc(C(F)F)nc3ncnn23)C1.Cl", "Emax / %": 9}
{"molecule": "C[C@H]1CCN(CC2CCOCC2)C[C@@H]1c1cc(C(F)F)nc2ncnn12.Cl", "Emax / %": 11}
{"molecule": "Cc1cc(C(C)N2CC[C@@H](C)[C@H](c3cc(C(F)F)nc4ncnn34)C2)cc(C)n1 (mixture of isomers) [Compound 1]", "Emax / %": 74}
{"molecule": "Cc1cc(CN2CC[C@@H](C)[C@H](c3cc(C(F)F)nc4ncnn34)C2)cc(C2CC2)n1", "Emax / %": 83}
{"molecule": "C[C@@H]1CCN(Cc2ccc3nccn3c2)C[C@H]1c1cc(C(F)F)nc2ncnn12", "Emax / %": 67}
